study_target: Polyphenol oxidase 1 (Agaricus bisporus)
Sequence (Q00024 whole entry): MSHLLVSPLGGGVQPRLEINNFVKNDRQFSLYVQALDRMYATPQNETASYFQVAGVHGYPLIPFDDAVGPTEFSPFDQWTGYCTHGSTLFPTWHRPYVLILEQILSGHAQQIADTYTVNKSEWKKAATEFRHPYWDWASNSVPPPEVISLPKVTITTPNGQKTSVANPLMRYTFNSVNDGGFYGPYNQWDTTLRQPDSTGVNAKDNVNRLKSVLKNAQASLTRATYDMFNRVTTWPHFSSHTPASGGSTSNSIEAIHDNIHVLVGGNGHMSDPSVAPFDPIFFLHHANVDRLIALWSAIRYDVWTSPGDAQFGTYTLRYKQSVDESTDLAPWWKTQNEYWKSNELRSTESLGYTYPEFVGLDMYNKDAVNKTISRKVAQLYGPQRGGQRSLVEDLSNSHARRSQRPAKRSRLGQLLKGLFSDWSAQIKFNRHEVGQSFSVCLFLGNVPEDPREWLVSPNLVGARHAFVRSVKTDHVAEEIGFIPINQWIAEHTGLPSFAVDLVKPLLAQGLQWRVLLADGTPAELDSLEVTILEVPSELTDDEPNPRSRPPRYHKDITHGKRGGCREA
pIC50: −log10 of the molar value.
measured_attribute: pIC50

COc1ccc(CC(O)c2ccc(O)cc2O)cc1 (configuration not stated) ... 4.11

a. Nc1ccc(CCC(O)c2c(O)cc(O)cc2O)cc1 (configuration not stated)
b. Oc1ccc(C(O)CCc2ccccc2O)c(O)c1 (configuration not stated)
API: POST /compare with a and b ; response names the item with higher pIC50. To answer, give the label that identifies your chosen option.
b
(b: 6.15, a: 5.10)

* * *

In what follows, each item is paired with its IC50 for Polyphenol oxidase 1 (Agaricus bisporus, UniProt Q00024).
measured_attribute: IC50 (µM)

a. CC(Cc1ccc(O)c(O)c1)C(C)Cc1ccc(O)c(O)c1 (centres undefined) [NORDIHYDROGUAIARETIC ACID]
b. COc1ccc(O)c(CCCc2ccc(O)cc2OC)c1
c. COc1ccc(CCCc2ccc(O)cc2O)c(OC)c1C
d. Oc1ccc(CCC(O)c2ccc(O)cc2)cc1 (centres undefined)
Let's sort these by IC50, smallest first. Go ahead? Answer by listing the labels in the order asked for.
c, b, d, a
(c: 0.24 µM, b: 24 µM, d: 305 µM, a: 700 µM)
